Target: PPAR gamma (Homo sapiens)
Sequence (P37231 1-505): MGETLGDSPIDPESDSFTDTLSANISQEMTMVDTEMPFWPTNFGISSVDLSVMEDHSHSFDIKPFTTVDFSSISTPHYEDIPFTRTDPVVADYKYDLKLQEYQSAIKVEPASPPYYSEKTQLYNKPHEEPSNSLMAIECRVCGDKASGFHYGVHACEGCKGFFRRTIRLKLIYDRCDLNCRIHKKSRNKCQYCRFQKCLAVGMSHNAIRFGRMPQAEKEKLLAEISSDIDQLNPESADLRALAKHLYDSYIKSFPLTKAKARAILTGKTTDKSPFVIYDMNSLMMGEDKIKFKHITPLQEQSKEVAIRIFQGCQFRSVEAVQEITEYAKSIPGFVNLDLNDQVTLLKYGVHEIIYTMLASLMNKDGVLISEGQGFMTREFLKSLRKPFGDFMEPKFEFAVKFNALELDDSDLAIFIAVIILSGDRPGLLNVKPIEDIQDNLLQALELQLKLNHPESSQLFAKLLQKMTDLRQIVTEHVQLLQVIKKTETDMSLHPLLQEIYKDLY
Experiment: PPAR γ reporter counterscreen (Indigo Biosciences kit)
Conditions: receptor agonist at ~EC80 for antagonist potency
OBSERVED PROPERTY: IC50 (µM)
Give just the numeric value; µM need not be written.

Notebook: `CC1(C)C(=O)N(c2ccc(C(F)(F)F)cc2)N=C1CCCc1ccc(OC2(C(=O)O)CCC2)cc1` , IC50 read as 56
